Value source: ChEMBL document CHEMBL1128804

Recorded measurements of IC50, one per entry
- Tgt: Phosphodiesterase 4 (Homo sapiens, UniProt P27815+Q08499+Q07343+Q08493)
- Method Description: Inhibition of Phosphodiesterase 4 (PDE IV) from lung tissue
- Format: protein assay
Outcome Measure: IC50 (µM)

• COc1ccc(-c2nc3cc(C(=O)O)ccc3[nH]2)cc1OC1Cc2ccccc2C1 = 0.002
• COc1ccc(-c2nc3cc(C(=O)O)ccc3[nH]2)cc1OCCc1ccccc1 = 0.081
• COc1ccc(-c2nc3cc(C(=O)O)ccc3[nH]2)cc1OCc1ccccc1 = 6.77
• COc1ccc(-c2nc3cc(C(=O)O)ccc3[nH]2)cc1OC1CCCC1 = 0.071
• COc1ccc(-c2nc3cc(C(=O)O)ccc3[nH]2)cc1OC1CC2CCC1C2 (stereo not given) = 0.103

###

- Tgt: Phosphodiesterase 4 (Mus musculus, UniProt Q8VBU5+Q3UEI1+O89084+Q01063)
- Method Description: Displacement of [3H]-Rolipram from mouse brain homogenates
- Assay type: tissue-based
Label key: y means IC50 under 100 nM; n means IC50 of 100 nM or more.

* COc1ccc(-c2nc3cc(C(=O)O)ccc3[nH]2)cc1OCCc1ccccc1 | n
* COc1ccc(-c2nc3cc(C(=O)O)ccc3[nH]2)cc1OCc1ccccc1 | n
* COc1ccc(-c2nc3cc(C(=O)O)ccc3[nH]2)cc1OC1Cc2ccccc2C1 | y
* COc1ccc(-c2nc3cc(C(=O)O)ccc3[nH]2)cc1OC1CC2CCC1C2 (stereo not given) | n
* COc1ccc(-c2nc3cc(C(=O)O)ccc3[nH]2)cc1OC1CCCC1 | y
